- procedure-text: recombinant barcode read abundance after kanamycin selection (control-corrected) (log10(CPM+1)); higher = more efficient recombination; sequences stand for … in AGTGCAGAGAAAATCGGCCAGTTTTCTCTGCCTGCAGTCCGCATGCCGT…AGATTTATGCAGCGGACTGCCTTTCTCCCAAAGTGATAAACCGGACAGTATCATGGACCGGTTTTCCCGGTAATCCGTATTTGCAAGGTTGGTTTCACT; site = the 11-nt target;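 note: IS621 recombinase and bridge RNA in Escherichia coli cells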
The following ranges of recombinant barcode read abundance (log10) define the classes used here: band A = under 0.1, band B = from 0.1 up to 0.6, band C = 0.6 and over

Study these solved cases before continuing.
INSERT INTO results (sequence, label_value) VALUES
  ('AGGATACCTTGGGTTCTAACCTGTTGCCT (site AGGATACCTAG)', 'band C'),
  ('TATAGAACTTGGGTTCTAACCTGTTGCCT (site TATATAACTAG)', 'band A'),
  ('AGGACTTCTTGGGTTCTAACCTGTTGCCT (site AGGACTTCTAG)', 'band C'),
  ('AGACTGGCTTGGGTTCTAACCTGTTGCCT (site AGACTGGCTAG)', 'band C'),
  ('CTTCGTCCTTGGGTTCTAACCTGTTGCTT (site CTTCGTCCTAT)', 'band B'),
  ('AAGTGCTCTTGGGTTCTAACCTGTTGCCT (site ATGTGCTCTAG)', 'band B');

INPUT: Lab note: which band did ACATGTCCTTGGGTTCTAACCTGTTGCGT (site ACATGTCCTAC) land in?
OUTPUT: band C

INPUT: # classify by recombinant barcode read abundance (log10) band: GATGCTACTTGGGTTCTAACCTGTTGCCA (site GATGCTACTTG)
OUTPUT: band A

INPUT: Assign a category based on measured recombinant barcode read abundance (log10) for TCCACAACTTGGGTTCTAACCTGTTGCCT (site TCCACAGCTAG) and give only the class name.
OUTPUT: band B

INPUT: Tag the class for TCTACGTCTTGGGTTCTAACCTGTTGCCT (site TCTACTTCTAG)
OUTPUT: band B
